DC50 values, listed per item
test_target: G2019S LRRK2 (Homo sapiens, UniProt Q5S007, G2019S)
Construct: expressed in transfected cells; host or cells: HEK293 (ATCC CRL-1573), transient transfection, mammalian expression vector with ubiquitin promoter
Sequence (Q5S007 whole entry G2019S): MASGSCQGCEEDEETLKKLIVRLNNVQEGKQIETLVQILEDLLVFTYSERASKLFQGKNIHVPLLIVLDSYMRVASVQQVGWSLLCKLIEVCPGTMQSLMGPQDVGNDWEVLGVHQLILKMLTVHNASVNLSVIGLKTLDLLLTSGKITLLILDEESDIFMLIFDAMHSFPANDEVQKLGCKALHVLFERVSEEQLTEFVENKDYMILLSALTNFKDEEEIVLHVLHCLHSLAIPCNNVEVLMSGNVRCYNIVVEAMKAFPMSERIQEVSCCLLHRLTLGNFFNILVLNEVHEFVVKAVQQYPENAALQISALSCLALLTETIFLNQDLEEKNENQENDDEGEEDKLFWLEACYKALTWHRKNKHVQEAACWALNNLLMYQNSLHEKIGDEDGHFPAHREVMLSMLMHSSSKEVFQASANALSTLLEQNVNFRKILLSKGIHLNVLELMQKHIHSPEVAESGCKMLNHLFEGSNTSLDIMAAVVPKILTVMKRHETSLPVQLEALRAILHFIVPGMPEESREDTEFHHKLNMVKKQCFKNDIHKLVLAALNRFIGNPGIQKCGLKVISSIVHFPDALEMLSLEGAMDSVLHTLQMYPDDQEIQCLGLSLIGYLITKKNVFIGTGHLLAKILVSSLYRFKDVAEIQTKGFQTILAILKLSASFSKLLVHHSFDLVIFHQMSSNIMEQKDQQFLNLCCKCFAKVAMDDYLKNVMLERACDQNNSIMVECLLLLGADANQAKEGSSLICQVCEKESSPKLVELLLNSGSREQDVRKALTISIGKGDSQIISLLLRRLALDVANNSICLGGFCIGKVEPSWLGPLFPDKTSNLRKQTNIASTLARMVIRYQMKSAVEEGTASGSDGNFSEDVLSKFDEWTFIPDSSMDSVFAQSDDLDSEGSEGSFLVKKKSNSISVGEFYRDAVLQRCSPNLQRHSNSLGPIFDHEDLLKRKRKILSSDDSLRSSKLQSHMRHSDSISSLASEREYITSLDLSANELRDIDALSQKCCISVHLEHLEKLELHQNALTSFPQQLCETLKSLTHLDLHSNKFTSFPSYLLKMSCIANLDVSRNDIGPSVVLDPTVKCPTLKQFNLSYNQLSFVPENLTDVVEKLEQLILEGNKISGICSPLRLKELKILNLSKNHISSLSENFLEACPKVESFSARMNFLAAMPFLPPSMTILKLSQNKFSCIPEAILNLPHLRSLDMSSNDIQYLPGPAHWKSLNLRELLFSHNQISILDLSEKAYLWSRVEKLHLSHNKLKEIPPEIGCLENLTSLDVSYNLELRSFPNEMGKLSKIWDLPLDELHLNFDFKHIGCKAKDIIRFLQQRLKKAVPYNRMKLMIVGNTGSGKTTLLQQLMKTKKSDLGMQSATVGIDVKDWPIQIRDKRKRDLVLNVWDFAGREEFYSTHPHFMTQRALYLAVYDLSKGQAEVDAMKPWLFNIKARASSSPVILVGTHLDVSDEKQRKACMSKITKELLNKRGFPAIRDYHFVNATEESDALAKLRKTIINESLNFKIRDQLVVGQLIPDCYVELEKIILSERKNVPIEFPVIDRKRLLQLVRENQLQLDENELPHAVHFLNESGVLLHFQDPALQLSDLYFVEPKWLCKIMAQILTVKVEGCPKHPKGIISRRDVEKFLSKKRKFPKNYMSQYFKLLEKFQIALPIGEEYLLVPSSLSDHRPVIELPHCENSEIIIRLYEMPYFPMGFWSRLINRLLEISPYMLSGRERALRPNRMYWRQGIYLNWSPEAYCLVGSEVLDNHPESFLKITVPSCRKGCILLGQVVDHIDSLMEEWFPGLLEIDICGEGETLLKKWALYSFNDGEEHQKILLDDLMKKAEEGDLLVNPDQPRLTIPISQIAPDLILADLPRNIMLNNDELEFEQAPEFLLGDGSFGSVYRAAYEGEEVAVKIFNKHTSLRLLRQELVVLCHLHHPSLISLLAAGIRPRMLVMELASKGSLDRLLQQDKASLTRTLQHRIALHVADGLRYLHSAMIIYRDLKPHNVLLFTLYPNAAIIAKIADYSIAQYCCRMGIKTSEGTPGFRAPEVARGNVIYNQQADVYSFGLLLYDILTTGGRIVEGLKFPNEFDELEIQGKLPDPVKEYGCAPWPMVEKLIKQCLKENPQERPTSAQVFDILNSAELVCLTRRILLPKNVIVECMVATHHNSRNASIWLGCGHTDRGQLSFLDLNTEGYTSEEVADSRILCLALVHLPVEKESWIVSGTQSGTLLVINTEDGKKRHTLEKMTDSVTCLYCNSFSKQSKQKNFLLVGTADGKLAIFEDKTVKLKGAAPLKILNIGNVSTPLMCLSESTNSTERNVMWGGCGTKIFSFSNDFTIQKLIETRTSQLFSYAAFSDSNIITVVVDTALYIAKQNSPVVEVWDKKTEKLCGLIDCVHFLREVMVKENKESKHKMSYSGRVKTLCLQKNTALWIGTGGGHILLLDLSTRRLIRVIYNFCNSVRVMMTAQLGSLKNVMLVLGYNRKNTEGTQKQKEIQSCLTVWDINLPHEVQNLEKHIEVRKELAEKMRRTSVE
assay_procedure: LRRK2 degradation assay, HiBit-tagged G2019S LRRK2 expressed from plasmid in HEK293 cells (Nano-Glo Dual-Luciferase)
Assay type: cell-based
condition_notes: HiBit-tagged G2019S LRRK2 in HEK293 cells, 24 hours

Examples from the recorded data:
CC1(Oc2ccc3[nH]nc(-c4cc(N5CCN(CCN6CCN(CC7CCN(c8ccc9c(c8)C(=O)N(C8CCC(=O)NC8=O)C9=O)CC7)CC6)CC5)ncn4)c3c2)CC1 (stereo not shown) : < 10 nM
CC1(Oc2ccc3[nH]nc(-c4cc(N5C[C@@H]6[C@H](CN7CCN(CC8CCN(c9ccc%10c(c9)C(=O)N(C9CCC(=O)NC9=O)C%10=O)CC8)CC7)[C@@H]6C5)ncn4)c3c2)CC1 (stereo partly shown) : 50 to 100 nM
CC1(Oc2ccc3[nH]nc(-c4ccnc(N5CCC(CN6CCN(C(=O)C7CCN(c8ccc9c(c8)C(=O)N(C8CCC(=O)NC8=O)C9=O)CC7)CC6)CC5)c4)c3c2)CC1 (stereo not shown) : < 10 nM
CC1(Oc2ccc3[nH]nc(-c4cc(N5CCC(CC6CCN(C(=O)C7CCN(c8ccc9c(c8)C(=O)N(C8CCC(=O)NC8=O)C9=O)CC7)CC6)CC5)ncn4)c3c2)CC1 (stereo not shown) : 10 to 50 nM
C[C@H]1CN(c2cc(-c3n[nH]c4ccc(OC5(C)CC5)cc34)ncn2)CCN1CCN1CCN(C(=O)C2CCN(c3ccc4c(c3)C(=O)N(C3CCC(=O)NC3=O)C4=O)CC2)CC1 (stereo partly shown) : < 10 nM
CC1(Oc2ccc3[nH]nc(-c4ccnc(N5CCOC6(CN(CC7CCN(CC8CCN(c9ccc%10c(c9)C(=O)N(C9CCC(=O)NC9=O)C%10=O)CC8)CC7)C6)C5)c4)c3c2)CC1 (stereo not shown) : < 10 nM

// next entry
Lab note: measured DC50 of CC1(Oc2ccc3[nH]nc(-c4cc(N5CCC(CN6CC(CN7CCN(c8ccc9c(c8)C(=O)N(C8CCC(=O)NC8=O)C9=O)CC7)C6)CC5)ncn4)c3c2)CC1 (stereo not shown) was < 10 nM
